Attribution: patent US20180118848A1

Target: T1, human MUC16 (mucin 16) (human)
T1 construct: Endogenously expressed on human tumour cell lines; also called hMUC16
Experiment: MSD ECL cell binding, RLU ratio OVCAR-3 vs SK-OV-3, 1.9 nM Ab
Consider the following binders; for each one, report its Ratio anti-MUC16 Binding OVCAR-3/SK-OV-3.
Field format: number, assumed ratio, no unit text.

Request: Would you kindly share the measured Ratio anti-MUC16 Binding OVCAR-3/SK-OV-3 for H1H9529N (antibody, human IgG1, V domains shown, Human IgG1 form of H3M9529N) VH: QVQLQQWGAGLLKPSETLSLTCAVYGGSFSGFYWSWIRQPPGKGLEWIGEINHSGSAKYNPSLKNRVIISIDTSKNQFSLKLDSVTAADTAVYNCARQGWNFAIFDYWGQGTLVDVSS VL: DIVMTQSPDSLAVSLGGRATINCKSSQSVLHSSYNKDHLAWYQQRPGQPPKLLIYWASTRESGVPDRFSGSGSGTDFTLTISSLQAEDVAVYYCQQYNILPPTFGQGTRVEIK ?
Response: 109

Request: H1H9528N (antibody, human IgG1, V domains shown, Human IgG1 form of H1M9528N) VH: QMQLQESGPGLVKPSETLSLTCTVSGGSISSYYWNWIRQPPGKGLEWIGYIYYSGNNFNPSLKSRVTISVDTSKNQFSLKLSSVTAADTAVYYCARAFHWNYEFDYWGQGTLVTVSS VL: EIVLTQSPGTLSLSPGERATLSCRASQSVSNNYLAWYQQKPGQAPRLLLYGASSRTTDIPDRFSGSGSGTDFTLTISRLEPEDFAVYYCQQYDNSPLTFGGGTKVEIR
Response: 41

Request: H2M7135N (antibody, mouse IgG2, V domains shown, Human variable regions, mouse IgG2 constant region) VH: EVQLVESGGGLVQAGGSLRLSCAASGFTFSYHEMNWVRQAPGKGLEWVSYIGSRGTTKHYADPVKGRFTISRDNAKNSLYLQMNSLRAEDTAVYYCASEVGSILGYSMDVWGQGTTVTVSS VL: DIQMTQSPSSLSASVGDRVTITCRASQSVSRYLNWCQQKPGKAPKLLTYAASSLQSGVPSRFSGSGSGTDFTLTISSLQPEDFAAYFCQQSYSTPPITFGQGTRLEIK
Response: 30

Request: H1H8770P (antibody, human IgG1, V domains shown, Human IgG1) VH: QVQLVESGGGVVQPGRSLRLSCAASGFTFSDHGMHWVRQAPGKGLEWVAVISYHGSNKHYADSVKGRFTISRDNSKNALYLQMNSLRPEDTAMYYCAKDGYDFWNGYSLFDYWGQGTLVTVSS VL: DIQMTQSPSSLSASVGDRVTITCRASQSISNYLNWYQQKPGKAPKLLIYTASNLLSGVPSRFSGSGSGTDFTLTISSLQPEDFATYYCQQSYSTPPITFGQGTKLEIK
Response: 9
